Test: Cytotoxicity counterscreen for inhibitors of SARS-CoV-2 cell entry (AID 1645845); further: nearly all actives have a fitted effect of over 50% in size
Settings: cell viability (SARS-CoV-2 entry assay cells); series mostly up to 57.1 µM
Inconclusive results are not listed. Activity calls are given as the source filed them. The call rests on the fitted dose curve.
Outcomes: active, inactive

- O=C(O)C(O)C(O)C(=O)O (centres undefined): inactive
- CCCCC(=O)O[C@]1(C(=O)COC(C)=O)CC[C@H]2[C@@H]3CCC4=CC(=O)C=C[C@]4(C)[C@H]3[C@@H](O)C[C@@]21C: inactive
- COc1ccc2c(c1)OC(C)(C)C(c1ccccc1)C2c1ccc(OCCN2CCCC2)cc1 (centres undefined): inactive
- Cc1cc(/C=c2/sc3nc4ccccc4n3c2=O)c(C)n1-c1ccccc1: inactive
- O=C(Nc1nccs1)C(c1cc(F)ccc1O)N1Cc2ccccc2C1=O (centres undefined): inactive
- Cc1ccc(/C=C2\C(=O)C3(C)CCC2C3(C)C)cc1 (centres undefined): inactive
- O=C(/C=C\n1cnc(-c2cc(C(F)(F)F)cc(C(F)(F)F)c2)n1)NNc1ccccn1: active
- CC(=O)Nc1ccc(C(=O)NC(C)(C)C)cc1: inactive
- CCOC(=O)C=C(C)C=CC[C@@H](C)CCCC(C)C: inactive
- O=C(O)c1ccc2nc(-c3cc(Cl)cc(Cl)c3)oc2c1: inactive
- CCCCCCCCCCCCNCCNCCNCC(=O)O: inactive
- C=Cc1c(C)c2cc3nc(cc4[nH]c(cc5nc(cc1[nH]2)C(C)=C5CCC(=O)O)c(CCC(=O)OC)c4C)[C@@]1(C)C3=CC=C(C(=O)OC)[C@@H]1C(=O)OC: inactive
- CC(C)(CO)[C@@H](O)C(=O)NCCC(=O)NCCSSCCNC(=O)CCNC(=O)[C@H](O)C(C)(C)CO: inactive
- Cc1c[nH]c2nc(Nc3ccc(N4CCN(C)CC4)c(F)c3)nc(-c3cccc(CC#N)c3)c12: active

====

Target: Ubiquitin carboxyl-terminal hydrolase 1 (Homo sapiens) (UniProt O94782)
Sequence (O94782 whole entry, looked up): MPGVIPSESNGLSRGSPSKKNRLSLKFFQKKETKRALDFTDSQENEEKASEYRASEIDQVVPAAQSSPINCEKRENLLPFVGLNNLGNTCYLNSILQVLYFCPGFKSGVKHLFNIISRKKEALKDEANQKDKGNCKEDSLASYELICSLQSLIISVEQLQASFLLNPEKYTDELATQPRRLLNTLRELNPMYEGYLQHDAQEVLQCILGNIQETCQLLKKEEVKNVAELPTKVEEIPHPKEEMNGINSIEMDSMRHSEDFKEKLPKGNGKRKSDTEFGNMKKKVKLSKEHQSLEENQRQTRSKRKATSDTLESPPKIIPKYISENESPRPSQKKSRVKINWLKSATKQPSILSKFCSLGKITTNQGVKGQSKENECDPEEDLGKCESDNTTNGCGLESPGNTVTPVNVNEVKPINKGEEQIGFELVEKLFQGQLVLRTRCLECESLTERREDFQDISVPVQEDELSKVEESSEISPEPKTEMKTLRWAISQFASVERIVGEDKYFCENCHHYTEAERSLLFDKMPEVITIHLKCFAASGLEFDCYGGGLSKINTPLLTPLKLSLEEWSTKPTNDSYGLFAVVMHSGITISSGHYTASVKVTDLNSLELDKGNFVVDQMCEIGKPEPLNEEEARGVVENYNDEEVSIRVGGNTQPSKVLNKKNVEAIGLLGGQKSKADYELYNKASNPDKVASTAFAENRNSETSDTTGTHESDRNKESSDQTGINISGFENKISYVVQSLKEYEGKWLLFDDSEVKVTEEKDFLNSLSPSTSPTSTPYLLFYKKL
Experiment: Inhibitors of USP1/UAF1: Pilot qHTS (AID 504865); further: nearly all actives have a fitted effect of over 35% in size
Conditions: purified USP1/UAF1, Ub-rhodamine cleavage fluorescence; series mostly up to 114 µM
Results filed as inconclusive are left out. Active and inactive are the calls of the source. Calls come from the whole dose curve; as a rule, active = well fitted inhibition curve with a large enough effect; inconclusive = small, poorly fitted or top-dose-only effect; inactive = flat fitted curve, though single readings scatter.
Outcome codes: T (active), F (inactive)

- Cc1nnc2ccc(-c3cccc(C(F)(F)F)c3)nn12: F
- C[C@@]12CCC(O)C[C@H]1CCC1C2CC[C@]2(C)C(=O)CCC12 (some centres not stated): F
- C[C@@]12CC(=O)[C@H]3[C@@H](CCC4=CC(=O)CC[C@]43C)[C@H]1CCC2=O: F
- CCN(CC)C(=O)N[C@@H]1C[C@H]2c3cccc4[nH]cc(c34)C[C@@H]2N(C)C1: F
- CN1CCC2=C[C@H](O)[C@@H]3OC(=O)c4cc5c(cc4[C@H]3[C@H]21)OCO5: F
- CNC[C@H](O)c1ccc(O)c(OC)c1: F
- COc1ccc2c(c1OC)C(=O)O[C@H]2[C@H]1c2cc3c(cc2CCN1C)OCO3: F
- N#C/C(=C\c1ccc(O)cc1)C(=O)O: F
- CCN1C[C@]2(COC)C(O)C[C@H](OC)[C@@]34C5C[C@]6(O)C(OC)C(O)[C@](OC(C)=O)(C5C6OC(=O)c5ccccc5)C(C(OC)C23)C14 (some centres not stated): F
- O=C1C=C2C=CC3C[C@@]2(O1)C1CCCCN31 (some centres not stated): F
- COc1cc(C2c3cc4c(cc3C(O)C3COC(=O)C23)OCO4)cc(OC)c1O (configuration not stated): F
- COc1cc2c(cc1OC)[C@@H]1C(=O)c3ccc(O)c(CC=C(C)C)c3OC1CO2 (some centres not stated): F
- C/C=C(\C)C(=O)OC1CC(OC(C)=O)[C@@]2(C(=O)OC)COC3C2[C@@]12CO[C@](O)(C(=O)OC)C2[C@](C)(C12OC1(C)C1CC2OC2OC=C[C@]21O)C3O (some centres not stated): F
- CC(=O)OC1CC[C@]2(C)C(CCC3C2CC[C@]2(C)C(C4=CC(=O)OC4)C(OC(C)=O)CC32O)C1 (some centres not stated): F
- CC[C@@H](CO)NC(=O)[C@H]1C=C2c3cccc4c3c(cn4C)C[C@H]2N(C)C1: T
- CC(C)OC(=O)Nc1cccc(Cl)c1: F
- COc1ccc(OC)c([C@H](O)[C@H](C)N)c1: F
- C[C@H]1CC[C@@]2(NC1)O[C@@H]1C[C@H]3[C@@H]4CC=C5C[C@@H](O)CC[C@]5(C)[C@@H]4CC[C@]3(C)[C@@H]1[C@@H]2C: F
- CC(=O)Oc1ccc(Cl)c2cccnc12: F
- COc1ccc2c(c1O)-c1c(OC)c(OC)cc3c1[C@H](C2)N(C)CC3: F
- CCC(C)C(=O)c1c(O)c(C)c2oc3c(C)c(O)c(C(=O)C(C)CC)c(O)c3c2c1O (configuration not stated): F
- CC(C)Nc1nc(Cl)nc(NC(C)C)n1: F
- CCC(N)C(O)c1ccc(O)c(O)c1 (configuration not stated): F
- CC1=NCCc2c1[nH]c1cc(O)ccc21: F
- C[C@@H]1NCCc2cc(O)c(O)cc21: F
- CC(=O)OC1C[C@H](O[C@@H]2C(O)C[C@H](O[C@@H]3C(O)C[C@@H](OC4CC[C@]5(C)C(CCC6C5CC(O)[C@@]5(C)C(C7=CC(=O)OC7)CC[C@@]65O)C4)OC3C)OC2C)O[C@H](C)[C@H]1O[C@H]1OC(CO)C(O)C(O)C1O (some centres not stated): F
- Cc1ccccc1-c1cncnc1NCCc1cnc[nH]1: F
